measurement.protocol: Drug absorption in digestive tract of Wistar rat at 5 mg/kg, iv and po
Format: ADME, organism-based
Set-up: dose 5 mg/kg, route oral
experimental.parameters: in vivo, read-out: Drug uptake
quantity.name: Fa (%)
Response body: numeric value in %, unit text excluded.

Report Fa for "COc1ccc2cc1Oc1ccc(cc1)C[C@H]1c3c(cc4c(c3Oc3cc5c(cc3OC)CCN(C)[C@@H]5C2)O[14CH2]O4)CCN1C" please.
70

----------
measurement.protocol: Half life in Wistar rat at 5 mg/kg, iv and po
Assay type: ADME, organism-based
Design: dose 5 mg/kg, route oral
experimental.parameters: in vivo
quantity.name: half-life (h)
Entry rule: numbers only, all in h.

Given "COc1ccc2cc1Oc1ccc(cc1)C[C@H]1c3c(cc4c(c3Oc3cc5c(cc3OC)CCN(C)[C@@H]5C2)O[14CH2]O4)CCN1C" , state its recorded half-life.
192

----------
measurement.protocol: Inhibition of calmodulin-stimulated Ca2+/Mg2+ ATPase activity in human erythrocyte membrane
Assay type: cell membranes
quantity.name: IC50 (µM)
Answer format: numeric, µM implied, no suffix.

{"columns": ["compound", "IC50 [µM]"],
 "data": [
  ["COc1cc2c3cc1Oc1c(OC)c(OC)cc4c1[C@@H](Cc1ccc(O)c(c1)Oc1ccc(cc1)C[C@@H]3N(C)CC2)N(C)CC4 [BERBAMINE]", 60]
]}

Here is another compound to look at.
Form field: reported IC50 of "CCOCCCCOc1ccc2cc1Oc1ccc(cc1)C[C@H]1c3cc(c(OC)cc3CCN1C)Oc1c(OC)c(OC)cc3c1[C@@H](C2)N(C)CC3"
0.35

----------
measurement.protocol: Half life in Wistar rat testis at 5 mg/kg, iv and po
Format: ADME, organism-based
Design: dose 5 mg/kg, route oral
quantity.name: half-life (days)
A number alone suffices; assume days.

half-life lookup needed for "COc1ccc2cc1Oc1ccc(cc1)C[C@H]1c3c(cc4c(c3Oc3cc5c(cc3OC)CCN(C)[C@@H]5C2)O[14CH2]O4)CCN1C" , thanks.
36
